Molecular target: CDK12 (Homo sapiens, UniProt Q9NYV4)
Sequence (Q9NYV4 whole entry): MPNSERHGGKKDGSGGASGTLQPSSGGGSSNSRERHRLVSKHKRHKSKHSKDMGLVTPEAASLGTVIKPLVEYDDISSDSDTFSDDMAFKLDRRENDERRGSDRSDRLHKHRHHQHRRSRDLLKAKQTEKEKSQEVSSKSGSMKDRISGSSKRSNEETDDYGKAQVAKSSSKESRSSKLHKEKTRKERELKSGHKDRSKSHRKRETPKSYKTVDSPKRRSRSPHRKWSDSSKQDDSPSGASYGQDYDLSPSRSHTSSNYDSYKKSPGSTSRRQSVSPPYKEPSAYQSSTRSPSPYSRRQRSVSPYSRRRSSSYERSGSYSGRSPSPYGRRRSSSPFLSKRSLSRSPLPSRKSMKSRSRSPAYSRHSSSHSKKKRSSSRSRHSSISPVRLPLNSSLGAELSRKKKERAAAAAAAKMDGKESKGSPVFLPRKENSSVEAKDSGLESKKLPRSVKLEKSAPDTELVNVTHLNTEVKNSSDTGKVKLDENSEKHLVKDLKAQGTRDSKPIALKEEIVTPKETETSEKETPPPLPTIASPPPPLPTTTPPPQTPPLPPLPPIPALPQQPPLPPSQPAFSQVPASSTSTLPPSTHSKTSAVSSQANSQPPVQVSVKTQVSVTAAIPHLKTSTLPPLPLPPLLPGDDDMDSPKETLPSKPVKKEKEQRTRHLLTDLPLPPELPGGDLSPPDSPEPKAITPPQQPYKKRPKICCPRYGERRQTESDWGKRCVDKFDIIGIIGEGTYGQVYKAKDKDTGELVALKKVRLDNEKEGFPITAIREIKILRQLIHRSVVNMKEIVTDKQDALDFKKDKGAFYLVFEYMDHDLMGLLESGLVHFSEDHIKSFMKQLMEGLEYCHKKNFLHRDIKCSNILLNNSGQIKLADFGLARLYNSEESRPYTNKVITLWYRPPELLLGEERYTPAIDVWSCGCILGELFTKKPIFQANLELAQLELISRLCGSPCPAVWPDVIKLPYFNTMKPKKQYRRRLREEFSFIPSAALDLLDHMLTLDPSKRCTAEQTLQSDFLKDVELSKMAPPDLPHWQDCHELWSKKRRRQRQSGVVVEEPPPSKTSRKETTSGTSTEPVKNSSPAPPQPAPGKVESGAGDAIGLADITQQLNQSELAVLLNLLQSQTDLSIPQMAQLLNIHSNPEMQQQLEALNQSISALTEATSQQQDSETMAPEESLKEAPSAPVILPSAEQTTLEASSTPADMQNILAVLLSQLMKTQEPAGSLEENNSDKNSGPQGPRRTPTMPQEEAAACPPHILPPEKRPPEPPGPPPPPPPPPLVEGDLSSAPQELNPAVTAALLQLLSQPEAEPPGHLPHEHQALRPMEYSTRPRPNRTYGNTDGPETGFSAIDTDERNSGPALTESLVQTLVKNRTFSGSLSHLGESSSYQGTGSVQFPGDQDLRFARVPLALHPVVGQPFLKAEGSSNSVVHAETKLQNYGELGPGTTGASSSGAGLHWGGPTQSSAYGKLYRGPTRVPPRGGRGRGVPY
Sequence (O75909 whole entry partner): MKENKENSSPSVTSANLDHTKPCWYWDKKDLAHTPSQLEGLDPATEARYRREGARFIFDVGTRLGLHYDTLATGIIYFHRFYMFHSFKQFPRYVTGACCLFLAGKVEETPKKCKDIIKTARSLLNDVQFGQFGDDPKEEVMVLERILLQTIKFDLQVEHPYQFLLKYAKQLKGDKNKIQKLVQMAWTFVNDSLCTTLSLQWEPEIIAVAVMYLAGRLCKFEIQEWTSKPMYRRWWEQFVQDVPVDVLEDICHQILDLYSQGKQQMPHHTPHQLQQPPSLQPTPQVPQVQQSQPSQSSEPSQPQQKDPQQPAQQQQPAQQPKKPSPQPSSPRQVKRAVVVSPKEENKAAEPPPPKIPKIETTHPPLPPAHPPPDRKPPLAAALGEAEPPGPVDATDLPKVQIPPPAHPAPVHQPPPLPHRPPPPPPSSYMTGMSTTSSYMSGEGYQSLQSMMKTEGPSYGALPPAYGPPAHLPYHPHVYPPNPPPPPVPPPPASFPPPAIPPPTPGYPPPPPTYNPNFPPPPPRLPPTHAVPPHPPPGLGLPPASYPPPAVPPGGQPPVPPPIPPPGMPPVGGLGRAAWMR
Assay: Western blot degradation of CDK12 (Example 3)
Format: cell-based
Parameters: degradation of CDK12/13 protein in leukemia cells KASUMI-1, MV4-11, and Jurkat; endogenous in cells
Conditions: DC50 classes; cell line not given; read-out: CDK12 degradation Activity

[
  {
    "MOLECULE": "CC(=O)N(c1ccc(-c2ccc(OCC3CCN(CC(=O)N[C@H](C(=O)N4C[C@H](O)C[C@H]4C(=O)N[C@@H](C)c4ccc(-c5scnc5C)cc4)C(C)(C)C)CC3)nc2)cc1)[C@H]1CC[C@H](Nc2ncc3ccccc3n2)CC1",
    "DC50": "500 to 1000 nM"
  },
  {
    "MOLECULE": "CC(=O)N(c1ccc(-c2ccc(CN3CCN(c4ccc5c(c4)C(=O)N(C4CCC(=O)NC4=O)C5=O)CC3)nc2)cc1)[C@H]1CC[C@H](Nc2ncc3ccccc3n2)CC1 (stereo partly drawn)",
    "DC50": "500 to 1000 nM"
  },
  {
    "MOLECULE": "CC(=O)N(c1ccc(-c2ccc(N3C[C@H]4C[C@@H]3CN4CC(=O)N[C@H](C(=O)N3C[C@H](O)C[C@H]3C(=O)N[C@@H](C)c3ccc(-c4scnc4C)cc3)C(C)(C)C)nc2)cc1)[C@H]1CC[C@H](Nc2ncc3ccccc3n2)CC1",
    "DC50": "100 to 500 nM"
  }
]

* * *

Target: CDK12 (Homo sapiens)
Assay: Western blot degradation of CDK12 (Example 3)
Format: cell-based
Parameters: degradation of CDK12/13 protein in leukemia cells KASUMI-1, MV4-11, and Jurkat; endogenous in cells
Conditions: DC50 classes; cell line not given; read-out: CDK12 degradation Activity

[
  {
    "MOLECULE": "CC(=O)N(c1ccc(-c2cnn(C3CCN(CC(=O)N[C@H](C(=O)N4C[C@H](O)C[C@H]4C(=O)N[C@@H](C)c4ccc(-c5scnc5C)cc4)C(C)(C)C)CC3)c2)cc1)[C@H]1CC[C@H](Nc2ncc3ccccc3n2)CC1",
    "DC50": "1000 to 3000 nM"
  },
  {
    "MOLECULE": "CC(=O)N(c1ccc(-c2cnn(CC3CN(CC(=O)N[C@H](C(=O)N4C[C@H](O)C[C@H]4C(=O)N[C@@H](C)c4ccc(-c5scnc5C)cc4)C(C)(C)C)C3)c2)cc1)[C@H]1CC[C@H](Nc2ncc3ccccc3n2)CC1 (stereo in doubt)",
    "DC50": "1000 to 3000 nM"
  },
  {
    "MOLECULE": "CC(=O)N(c1ccc(N2CCC3(CC2)CCN(c2ccc4c(c2)C(=O)N(C2CCC(=O)NC2=O)C4=O)C3)cc1)[C@H]1CC[C@H](Nc2ncc3ccccc3n2)CC1 (some centres unmarked)",
    "DC50": "1000 to 3000 nM"
  },
  {
    "MOLECULE": "CC(=O)N(c1ccc(-c2ccc(OCCOCC(=O)N[C@H](C(=O)N3C[C@H](O)C[C@H]3C(=O)N[C@@H](C)c3ccc(-c4scnc4C)cc3)C(C)(C)C)nc2)cc1)[C@H]1CC[C@H](Nc2ncc3ccccc3n2)CC1",
    "DC50": "500 to 1000 nM"
  },
  {
    "MOLECULE": "CC(=O)N(c1ccc(-c2cnc(N3CCN(c4cc5c(cc4F)C(=O)N(C4CCC(=O)NC4=O)C5=O)CC3)nc2)cc1)[C@H]1CC[C@H](Nc2ncc3ccccc3n2)CC1 (some centres unmarked)",
    "DC50": "1000 to 3000 nM"
  }
]

* * *

List of DC50 values.
Target: CDK12 (Homo sapiens)
Assay: Western blot degradation of CDK12 (Example 3)
Assay type: cell-based
Parameters: degradation of CDK12/13 protein in leukemia cells KASUMI-1, MV4-11, and Jurkat; endogenous in cells
Conditions: DC50 classes; cell line not given; read-out: CDK12 degradation Activity
EXPERIMENTAL ENDPOINT: DC50

[
  {
    "COMPOUND": "CC(=O)N(c1ccc(-c2ccc(N3CCN(c4ccc5c(c4)C(=O)N(C4CCC(=O)NC4=O)C5=O)CC3)nc2)cc1)[C@H]1CC[C@H](Nc2ncc3ccccc3n2)CC1 (stereo partly drawn)",
    "EXPERIMENTAL ENDPOINT": "DC50",
    "REPORTED RESULT": "< 100 nM"
  },
  {
    "COMPOUND": "CC(=O)N(c1ccc(-c2ccc(N3CCN(c4cc(C(C(=O)N5C[C@H](O)C[C@H]5C(=O)N[C@@H](C)c5ccc(-c6scnc6C)cc5)C(C)C)on4)CC3)nc2)cc1)[C@H]1CC[C@@H](Nc2ncc3ccccc3n2)CC1 (single isomer, unassigned)",
    "EXPERIMENTAL ENDPOINT": "DC50",
    "REPORTED RESULT": "< 100 nM"
  },
  {
    "COMPOUND": "CC(=O)N(c1ccc(-c2cnc(N3C[C@H]4C[C@@H]3CN4CC(=O)N[C@H](C(=O)N3C[C@H](O)C[C@H]3C(=O)N[C@@H](C)c3ccc(-c4scnc4C)cc3)C(C)(C)C)nc2)cc1)[C@H]1CC[C@H](Nc2ncc3ccccc3n2)CC1",
    "EXPERIMENTAL ENDPOINT": "DC50",
    "REPORTED RESULT": "< 100 nM"
  },
  {
    "COMPOUND": "CC(=O)N(c1ccc(-c2ccn(CC3CCN(c4ccc5c(c4)C(=O)N(C4CCC(=O)NC4=O)C5=O)CC3)c(=O)c2)cc1)[C@H]1CC[C@H](Nc2ncc3ccccc3n2)CC1 (stereo partly drawn)",
    "EXPERIMENTAL ENDPOINT": "DC50",
    "REPORTED RESULT": "1000 to 3000 nM"
  },
  {
    "COMPOUND": "CC(=O)N(c1ccc(N2CCN(C3CCN(c4ccc5c(c4)C(=O)N(C4CCC(=O)NC4=O)C5=O)CC3)CC2)cc1)[C@H]1CC[C@H](Nc2ncc3ccccc3n2)CC1 (stereo partly drawn)",
    "EXPERIMENTAL ENDPOINT": "DC50",
    "REPORTED RESULT": "100 to 500 nM"
  },
  {
    "COMPOUND": "CC(=O)N(c1ccc(-c2ccc(N3C[C@@H]4C[C@H]3CN4CC(=O)N[C@H](C(=O)N3C[C@H](O)C[C@H]3C(=O)N[C@@H](C)c3ccc(-c4scnc4C)cc3)C(C)(C)C)nc2)cc1)[C@H]1CC[C@H](Nc2ncc3ccccc3n2)CC1",
    "EXPERIMENTAL ENDPOINT": "DC50",
    "REPORTED RESULT": "< 100 nM"
  },
  {
    "COMPOUND": "CC(=O)N(c1ccc(N2CCN(C3CCN(c4ccc5c(c4)C(=O)N(C4CCC(=O)NC4=O)C5=O)C3)CC2)cc1)[C@H]1CC[C@H](Nc2ncc3ccccc3n2)CC1 (stereo partly drawn)",
    "EXPERIMENTAL ENDPOINT": "DC50",
    "REPORTED RESULT": "1000 to 3000 nM"
  },
  {
    "COMPOUND": "CC(=O)N(c1ccc(-c2cnn(C3CCN(c4ccc5c(c4)C(=O)N(C4CCC(=O)NC4=O)C5=O)CC3)c2)cc1)[C@H]1CC[C@H](Nc2ncc3ccccc3n2)CC1 (stereo partly drawn)",
    "EXPERIMENTAL ENDPOINT": "DC50",
    "REPORTED RESULT": "1000 to 3000 nM"
  },
  {
    "COMPOUND": "CC(=O)N(c1ccc(-c2cnc(N3CCN(c4ccc5c(c4)C(=O)N(C4CCC(=O)NC4=O)C5=O)CC3)nc2)cc1)[C@H]1CC[C@H](Nc2ncc3ccccc3n2)CC1 (stereo partly drawn) [Formula 158]",
    "EXPERIMENTAL ENDPOINT": "DC50",
    "REPORTED RESULT": "< 100 nM"
  }
]

* * *

Test: In vivo pharmacokinetics in mice
Settings: mouse, plasma, ip, 30 mg/kg, intraperitoneal
EXPERIMENTAL ENDPOINT: half-life (min)

[
  {
    "CPD SMILES": "CC(=O)N(c1ccc(-c2ccc(N3CCN(CC(=O)N[C@H](C(=O)N4C[C@H](O)C[C@H]4C(=O)N[C@@H](C)c4ccc(-c5scnc5C)cc4)C(C)(C)C)CC3)nc2)cc1)[C@H]1CC[C@H](Nc2ncc3ccccc3n2)CC1",
    "UNIT NAME": "min",
    "REPORTED RESULT": 155
  }
]

* * *

Molecular target: UniProtKB Q9NYV4
Assay: Western blot degradation of CDK12 (Example 2)
Assay type: cell-based
Parameters: degradation of CDK12/13 protein in leukemia cells KASUMI-1, MV4-11, and Jurkat; endogenous in cells
Conditions: DC50 classes; cell line not given; read-out: CDK12 degradation Activity
List of DC50 values.

[
  {
    "MOLECULE": "N#Cc1ccc(N[C@H]2CC[C@H](N(C(=O)NCc3ccccc3)c3ccc(N4CCN(CCOCCOCCOCCNc5cccc6c5C(=O)N(C5CCC(=O)NC5=O)C6=O)CC4)cc3)CC2)nc1 (stereo partly drawn)",
    "DC50": "500 to 1000 nM"
  },
  {
    "MOLECULE": "Cc1ncsc1-c1ccc([C@H](C)NC(=O)[C@@H]2C[C@@H](O)CN2C(=O)[C@@H](NC(=O)CC#CCCOc2ccc(-c3ccc(N(C(=O)NCc4ccccc4)[C@H]4CC[C@H](Nc5ccc(C#N)cn5)CC4)cc3)cn2)C(C)(C)C)cc1",
    "DC50": "3000 to 10000 nM"
  },
  {
    "MOLECULE": "N#Cc1ccc(N[C@H]2CC[C@H](N(C(=O)NCc3ccccc3)c3ccc(-c4ccc(=O)n(CCOCCOCCOCCOCCNc5cccc6c5C(=O)N(C5CCC(=O)NC5=O)C6=O)c4)cc3)CC2)nc1 (stereo partly drawn)",
    "DC50": "500 to 1000 nM"
  }
]
